We begin with a simple list: items and their reported MIC.
Tested on: strains of Parvimonas micra
Test: MIC against anaerobes, agar dilution (CLSI), clinical isolates
Format: cell-based
Settings: Parvimonas micra strain 4

Below, each entry is followed by its recorded MIC result.
>>> reported_value("COc1ccc2ncc(=O)n(CCN[C@@H]3CC[C@@H]4[C@@H](C3)OC(=O)N4c3ccc4c(n3)NC(=O)CO4)c2c1")
"1 to 4 µg/mL"
>>> reported_value("Cc1ncc([N+](=O)[O-])n1CCO [MTZ, metronidazole, reference compound]")
"< 1 µg/mL"
>>> reported_value("CN[C@H](CC(C)C)C(=O)N[C@H]1C(=O)N[C@@H](CC(N)=O)C(=O)N[C@H]2C(=O)N[C@H]3C(=O)N[C@H](C(=O)N[C@H](C(=O)O)c4cc(O)cc(O)c4-c4cc3ccc4O)[C@H](O)c3ccc(c(Cl)c3)Oc3cc2cc(c3O[C@@H]2O[C@H](CO)[C@@H](O)[C@H](O)[C@H]2O[C@H]2C[C@](C)(N)[C@H](O)[C@H](C)O2)Oc2ccc(cc2Cl)[C@H]1O [VAN, vancomycin, reference compound]")
"1 to 4 µg/mL"

**Query** Observed MIC on strains of Parvimonas micra for "Cc1ccc2ncc(=O)n(CCN[C@H]3CC[C@H]4[C@@H](C3)OC(=O)N4c3ccc4c(n3)NC(=O)CO4)c2c1" , please.
**Result** > 64 µg/mL

* * *

System: strains of Prevotella bivia
Assay: MIC against anaerobes, agar dilution (CLSI), clinical isolates
Format: cell-based
Conditions: Prevotella bivia strain 6
assay readout: MIC

These solved cases illustrate the format of a correct answer.
>>> reported_value("Cc1ncc([N+](=O)[O-])n1CCO [MTZ, metronidazole, reference compound]")
"1 to 4 mg/L"
>>> reported_value("Cc1ccc2ncc(=O)n(CCN[C@H]3CC[C@H]4[C@@H](C3)OC(=O)N4c3ccc4c(n3)NC(=O)CO4)c2c1")
"1 to 4 mg/L"
>>> reported_value("COc1ccc2ncc(=O)n(CCN[C@@H]3CC[C@@H]4[C@@H](C3)OC(=O)N4c3ccc4c(n3)NC(=O)CO4)c2c1")
"< 1 mg/L"

**Query** GET /values?readout=MIC&item= CN[C@H](CC(C)C)C(=O)N[C@H]1C(=O)N[C@@H](CC(N)=O)C(=O)N[C@H]2C(=O)N[C@H]3C(=O)N[C@H](C(=O)N[C@H](C(=O)O)c4cc(O)cc(O)c4-c4cc3ccc4O)[C@H](O)c3ccc(c(Cl)c3)Oc3cc2cc(c3O[C@@H]2O[C@H](CO)[C@@H](O)[C@H](O)[C@H]2O[C@H]2C[C@](C)(N)[C@H](O)[C@H](C)O2)Oc2ccc(cc2Cl)[C@H]1O [VAN, vancomycin, reference compound]
**Result** > 64 mg/L

* * *

Reported MIC values for a set of molecules
System: strains of Bacteroides fragilis
Assay: MIC against anaerobes, agar dilution (CLSI), clinical isolates
Format: cell-based
Conditions: Bacteroides fragilis strain 12

>>> reported_value("COc1ccc2ncc(=O)n(CCN[C@@H]3CC[C@@H]4[C@@H](C3)OC(=O)N4c3ccc4c(n3)NC(=O)CO4)c2c1")
"< 1 µg/mL"

**Query** What value of measured MIC is listed for "Cc1ccc2ncc(=O)n(CCN[C@H]3CC[C@H]4[C@@H](C3)OC(=O)N4c3ccc4c(n3)NC(=O)CO4)c2c1" ?
**Result** 1 to 4 µg/mL

**Query** Please look up its MIC: CN[C@H](CC(C)C)C(=O)N[C@H]1C(=O)N[C@@H](CC(N)=O)C(=O)N[C@H]2C(=O)N[C@H]3C(=O)N[C@H](C(=O)N[C@H](C(=O)O)c4cc(O)cc(O)c4-c4cc3ccc4O)[C@H](O)c3ccc(c(Cl)c3)Oc3cc2cc(c3O[C@@H]2O[C@H](CO)[C@@H](O)[C@H](O)[C@H]2O[C@H]2C[C@](C)(N)[C@H](O)[C@H](C)O2)Oc2ccc(cc2Cl)[C@H]1O [VAN, vancomycin, reference compound]
**Result** 16 to 64 µg/mL

**Query** What MIC value was documented for this molecule, Cc1ncc([N+](=O)[O-])n1CCO [MTZ, metronidazole, reference compound] ?
**Result** < 1 µg/mL
